Assay: Solution Degradation Studies measured by compound unchanged at pH 0.4=50% 1 M HCl/50% acetonitrile at 2 hours
Format: ADME
Settings: 50% 1 M HCl / 50% acetonitrile solution, read-out: Unchanged
Listed next: entries and their corresponding remaining at 2 h.
measured.endpoint: remaining at 2 h (%)

[[record]]
smiles_representation = "Cc1cccc(C)c1OC(=O)NS(=O)(=O)Oc1c(C(C)C)cccc1C(C)C"
measurement_units = "%"
reported_measurement = 71

[[record]]
smiles_representation = "CC(C)c1cccc(C(C)C)c1OC(=O)NS(=O)(=O)Oc1c(C(C)C)cccc1C(C)C"
measurement_units = "%"
reported_measurement = 88

[[record]]
smiles_representation = "CC(C)c1cccc(C(C)C)c1OS(=O)(=O)NC(=O)Oc1c(C(C)(C)C)cccc1C(C)(C)C"
measurement_units = "%"
reported_measurement = 100

